# Test target: orexin-1 (Homo sapiens (Human), UniProt O43613)
# Sequence (O43613 whole entry): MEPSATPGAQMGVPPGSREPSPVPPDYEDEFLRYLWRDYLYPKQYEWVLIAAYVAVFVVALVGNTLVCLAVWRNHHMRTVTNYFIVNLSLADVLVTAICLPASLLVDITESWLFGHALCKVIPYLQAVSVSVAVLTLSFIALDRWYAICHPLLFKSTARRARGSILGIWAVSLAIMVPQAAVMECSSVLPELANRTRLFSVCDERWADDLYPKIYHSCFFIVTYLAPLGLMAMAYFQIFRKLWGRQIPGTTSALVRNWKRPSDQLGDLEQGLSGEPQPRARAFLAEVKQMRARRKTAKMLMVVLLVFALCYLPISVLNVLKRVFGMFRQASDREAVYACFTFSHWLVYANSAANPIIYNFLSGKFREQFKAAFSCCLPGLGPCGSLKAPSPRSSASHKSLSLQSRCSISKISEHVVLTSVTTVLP
# Test name: Intracellular calcium measurement (FLIPR), CHO cells expressing human orexin-1 receptor, 3 nM orexin-A
# Format: cell-based
# Condition info: CHO cells expressing human orexin-1 receptor, FLIPR, 3 nM orexin-A; geometric mean if determined several times; read-out: IC50 OX1
Quantity kind: IC50 (nM)

Sample records with IC50:
- Compound: "Cc1cccc(-n2nccn2)c1C(=O)N1CCC[C@H]1c1nc(-c2ccccc2OC(F)(F)F)no1"
  Test target: "orexin-1 (Homo sapiens (Human), UniProt O43613)"
  Reported measurement: 184
- Compound: "Cc1ccc(-n2nccn2)c(C(=O)N2CCC[C@H]2c2nnc(-c3ccccc3)o2)c1"
  Test target: "orexin-1 (Homo sapiens (Human), UniProt O43613)"
  Reported measurement: 1800
- Compound: "Cc1ccc(C(=O)N2CCC[C@H]2c2noc(-c3ccccc3OC(F)(F)F)n2)c(-n2nccn2)c1"
  Test target: "orexin-1 (Homo sapiens (Human), UniProt O43613)"
  Reported measurement: 18
- Compound: "Cc1ccc(C(=O)N2CCC[C@H]2c2noc(-c3cccc(F)c3C)n2)c(-n2nccn2)c1"
  Test target: "orexin-1 (Homo sapiens (Human), UniProt O43613)"
  Reported measurement: 112
- Compound: "COc1c(F)cccc1-c1nc([C@@H]2CCCN2C(=O)c2ccc(C)cc2-n2nccn2)no1"
  Test target: "orexin-1 (Homo sapiens (Human), UniProt O43613)"
  Reported measurement: 27
- Compound: "COc1ccc(-n2nccn2)c(C(=O)N2CCC[C@H]2c2nc(-c3ccccc3OC(F)(F)F)no2)c1"
  Test target: "orexin-1 (Homo sapiens (Human), UniProt O43613)"
  Reported measurement: 27

[I] Cc1ccc(-n2nccn2)c(C(=O)N2CCC[C@H]2c2noc(-c3cccc(F)c3C)n2)c1
[II] COc1ccc(C(=O)N2CCC[C@H]2c2nc(-c3ccccc3OC(F)(F)F)no2)c(-n2nccn2)c1
Between I and II , whose recorded IC50 is greater? # answer = label of selected item
II
(II: 137 nM, I: 65 nM)

[I] O=C(c1ccccc1-c1ccccc1)N1CCC[C@H]1c1nc(-c2ccccc2OC(F)(F)F)no1
[II] Cc1cccc(-c2ocnc2C(=O)N2CCC[C@H]2c2nnc(-c3ccccc3OC(F)(F)F)[nH]2)c1
Given I and given II , which shows the smaller recorded IC50? # answer = label of selected item
I

----------
# Test target: orexin-1 (Homo sapiens (Human))
# Test name: Intracellular calcium measurement (FLIPR), CHO cells expressing human orexin-1 receptor, 3 nM orexin-A
# Type: cell-based
# Condition info: CHO cells expressing human orexin-1 receptor, FLIPR, 3 nM orexin-A; geometric mean if determined several times; read-out: IC50 OX1
Quantity kind: IC50 (nM)

- Compound: "CCOc1cnccc1-c1noc([C@@H]2CCCN2C(=O)c2cc(C)ccc2-n2nccn2)n1"
  IC50 (nM): 241

[A] Cc1ccc(-n2nccn2)c(C(=O)N2CCC[C@H]2c2nc(-c3ccc(C)c(C)c3)no2)c1
[B] Cc1cc(C(=O)N2CCC[C@H]2c2nc(-c3cccc(Cl)c3C)no2)c(-n2nccn2)cc1C
Given A and given B , which shows the smaller recorded IC50? # answer = label of selected item
B

----------
Here, each record is paired with measured effect on active wake data.
# Tested on: Wistar rats
# Test name: Sleep effects: EEG, EMG and behavioural indices of alertness by radiotelemetry
# Format: in vivo
# Condition info: 100 mg/kg po; effects analyzed over 12 hours; compared to vehicle controls
Answer with a number only, understood to be in %.

- Molecule: "COc1cc(C(=O)N2CCC[C@H]2c2noc(-c3ccccc3OC(F)(F)F)n2)c(-n2nccn2)cc1C [Example 308]"
  Reported measurement: "−24.0"

For the molecule Cc1cc(C(=O)N2CCC[C@H]2c2nc(-c3cccc(Cl)c3C)no2)c(-n2nccn2)cc1C [Example 95] , what effect on active wake is on record?
−7.3

For the molecule Cc1ccc(C(=O)N2CCC[C@H]2c2nnc(-c3ccccc3OC(F)(F)F)[nH]2)c(-n2nccn2)c1 [Example 502] , what effect on active wake is on record?
−19.4

For the molecule COc1cc(C(=O)N2CCC[C@H]2c2nc(-c3ccccc3OC(F)(F)F)no2)c(-n2nccn2)cc1C [Example 154] , what effect on active wake is on record?
−13.9

----------
# Test target: orexin-1 (Homo sapiens (Human), UniProt O43613)
# Test name: Intracellular calcium measurement (FLIPR), CHO cells expressing human orexin-1 receptor, 3 nM orexin-A
# Assay type: cell-based
# Condition info: CHO cells expressing human orexin-1 receptor, FLIPR, 3 nM orexin-A; geometric mean if determined several times; read-out: IC50 OX1
Quantity kind: IC50 (nM)

Sample records with IC50:
- Compound: "COc1cc(C(=O)N2CCC[C@H]2c2noc(-c3cc(C)ccc3OC)n2)c(-n2nccn2)cc1C [compound 387]"
  IC50, nM: 57
- Compound: "CCOc1ncccc1-c1nc([C@@H]2CCCN2C(=O)c2cc(OC)c(F)cc2-n2nccn2)no1 [compound 332]"
  IC50, nM: 99
- Compound: "Cc1ccc(-n2nccn2)c(C(=O)N2CCC[C@H]2c2nc(-c3ccccc3OC(F)(F)F)no2)n1 [compound 159]"
  IC50, nM: 88
- Compound: "Cc1ccc(C(=O)N2CCC[C@@]2(C)c2nnc(-c3ccccc3OC(F)(F)F)[nH]2)c(-c2ccccc2)c1 [compound 548]"
  IC50, nM: 35
- Compound: "Cc1ccc(-c2ccccc2)c(C(=O)N2CCC[C@@]2(C)c2nnc(-c3cccc(Cl)c3C)[nH]2)c1 [compound 556]"
  IC50, nM: 870

[1] Cc1cc(C)cc(-c2noc([C@@H]3CCCN3C(=O)c3cc(C)ccc3-n3nccn3)n2)c1 [compound 11]
[2] Cc1ccc(-n2nccn2)c(C(=O)N2CCC[C@H]2c2nc(-c3cccc4cc[nH]c34)no2)c1 [compound 46]
Given 1 and given 2 , which shows the smaller recorded IC50? # answer = label of selected item
2
(2: 4 nM, 1: 58 nM)

----------
# Test target: orexin-1 (Homo sapiens (Human), UniProt O43613)
# Test name: Intracellular calcium measurement (FLIPR), CHO cells expressing human orexin-1 receptor, 3 nM orexin-A
# Assay type: cell-based
# Condition info: CHO cells expressing human orexin-1 receptor, FLIPR, 3 nM orexin-A; geometric mean if determined several times; read-out: IC50 OX1
Quantity kind: IC50 (nM)

Sample records with IC50:
- Compound: "COc1ccc(C)cc1-c1nc([C@@H]2CCCN2C(=O)c2ccc(C)cc2-n2nccn2)no1"
  Test target: "orexin-1 (Homo sapiens (Human), UniProt O43613)"
  IC50 / nM: 331
- Compound: "Cc1ccc(-n2nccn2)c(C(=O)N2CCC[C@H]2c2noc(-c3ccccc3)n2)c1"
  Test target: "orexin-1 (Homo sapiens (Human), UniProt O43613)"
  IC50 / nM: 258

[a] Cc1ccc(-n2nccn2)c(C(=O)N2CCC[C@H]2c2nc(-c3c[nH]c4ccccc34)no2)c1
[b] COc1ccc(C)c(-c2nc([C@@H]3CCCN3C(=O)c3ccc(C)cc3-n3nccn3)no2)c1
Given a and given b , which shows the smaller recorded IC50? # answer = label of selected item
a

----------
# Test target: orexin-1 (Homo sapiens (Human))
# Test name: Intracellular calcium measurement (FLIPR), CHO cells expressing human orexin-1 receptor, 3 nM orexin-A
# Type: cell-based
# Condition info: CHO cells expressing human orexin-1 receptor, FLIPR, 3 nM orexin-A; geometric mean if determined several times; read-out: IC50 OX1
pIC50: −log10 of the molar value.
Quantity kind: pIC50

Sample records with pIC50:
- Compound: "COc1c(F)cccc1-c1nc([C@@H]2CCCN2C(=O)c2ccc(Cl)cc2-n2nccn2)no1"
  Reported measurement: 7.52
- Compound: "Cc1c(Cl)cccc1-c1noc([C@@H]2CCCN2C(=O)c2cc(F)ccc2-c2ccn[nH]2)n1"
  Reported measurement: 6.34

[1] Cc1cccc(-c2scnc2C(=O)N2CCC[C@H]2c2nnc(-c3ccccc3OC(F)(F)F)[nH]2)c1
[2] CCOc1ccccc1-c1noc([C@@H]2CCCN2C(=O)c2cc(OC)ccc2-n2nccn2)n1
Given 1 and given 2 , which shows the smaller recorded pIC50? # answer = label of selected item
1

----------
# Test target: human orexin-2 receptor (Homo sapiens (Human))
# Sequence (O43614 whole entry): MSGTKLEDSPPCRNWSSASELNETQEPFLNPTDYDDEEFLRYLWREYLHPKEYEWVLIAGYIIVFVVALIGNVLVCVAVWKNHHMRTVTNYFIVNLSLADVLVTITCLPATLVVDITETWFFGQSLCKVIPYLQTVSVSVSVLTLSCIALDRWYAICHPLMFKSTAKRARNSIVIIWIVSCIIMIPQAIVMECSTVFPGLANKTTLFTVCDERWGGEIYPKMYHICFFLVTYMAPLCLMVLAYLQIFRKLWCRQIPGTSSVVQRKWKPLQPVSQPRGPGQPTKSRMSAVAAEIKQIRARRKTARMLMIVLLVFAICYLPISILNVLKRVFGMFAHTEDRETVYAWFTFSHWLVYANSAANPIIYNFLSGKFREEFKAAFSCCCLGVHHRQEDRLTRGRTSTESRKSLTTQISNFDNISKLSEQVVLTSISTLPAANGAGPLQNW
# Test name: Intracellular calcium measurement (FLIPR), CHO cells expressing human orexin-2 receptor, 3 nM orexin-A
# Format: cell-based
# Condition info: CHO cells expressing human orexin-2 receptor, FLIPR, 3 nM orexin-A; geometric mean if determined several times; read-out: IC50 OX2
Quantity kind: IC50 (nM)

Sample records with IC50:
- Compound: "Cc1ccc(-n2nccn2)c(C(=O)N2CCC[C@H]2c2nc(-c3ccc4c(c3)OCO4)no2)c1"
  Reading unit: "nM"
  Reported measurement: 322
- Compound: "CCOc1ncccc1-c1noc([C@@H]2CCCN2C(=O)c2cc(OC)c(C)cc2-c2ncccn2)n1"
  Reading unit: "nM"
  Reported measurement: 42
- Compound: "O=C(c1ccccc1-n1nccn1)N1CCC[C@H]1c1nnc(-c2ccccc2OC(F)(F)F)[nH]1"
  Reading unit: "nM"
  Reported measurement: 27
- Compound: "CCOc1ncccc1-c1nc([C@@H]2CCCN2C(=O)c2cc(OC)c(Cl)cc2-n2nccn2)no1"
  Reading unit: "nM"
  Reported measurement: 1
- Compound: "COc1ccc(-n2nccn2)c(C(=O)N2CCC[C@H]2c2nc(-c3ccccc3OC(F)(F)F)no2)c1F"
  Reading unit: "nM"
  Reported measurement: 83

[I] COc1c(F)cccc1-c1noc([C@@H]2CCCN2C(=O)c2cccc(C)c2-n2nccn2)n1
[II] Cc1ccc(-n2nccn2)c(C(=O)N2CCC[C@H]2c2ncc(-c3ccccc3OC(F)(F)F)[nH]2)c1
Between I and II , whose recorded IC50 is greater? # answer = label of selected item
I
